System: IL10 secretion by TMD8 ABC-DLBCL cells
Assay: Human IL10 Mesoscale assay (TMD-8)
Assay type: cell-based
Settings: Homo sapiens, TMD8; TMD-8 cells, 24 h
pIC50: −log10 of the molar value.
Threshold rule: pIC50 greater than or equal to 7 is fulfilled; below that, not fulfilled.

- Molecule: "[2H]c1ccc2c(-n3ncc(C(=O)Nc4cnc(-n5nccn5)c(Cl)c4)c3C(F)(F)F)cccc2n1 [Cpd 131]"
  Assigned class: "fulfilled"
- Molecule: "COC(C)c1c(C(=O)Nc2cnc(-n3nccn3)c(Cl)c2)cnn1-c1cccc2ncccc12 (stereo not shown) [Cpd 35]"
  Assigned class: "not fulfilled"

--- query ---
Task: Please check the record COc1cc(NC(=O)c2cnn(-c3cccc4ncccc34)c2C(F)(F)F)cnc1-n1ccnn1 [Cpd 235] and state if its pIC50 is at or above 7.
Result: not fulfilled
